Would you mind telling me the reported pIC50 of each entry?
Molecular target: LATS1 Kinase-NanoLuc fusion in HEK-293 cells (Homo sapiens, UniProt O95835)
Construct: host or cells: HEK-293
Sequence (O95835 whole entry, the tested form may be a part): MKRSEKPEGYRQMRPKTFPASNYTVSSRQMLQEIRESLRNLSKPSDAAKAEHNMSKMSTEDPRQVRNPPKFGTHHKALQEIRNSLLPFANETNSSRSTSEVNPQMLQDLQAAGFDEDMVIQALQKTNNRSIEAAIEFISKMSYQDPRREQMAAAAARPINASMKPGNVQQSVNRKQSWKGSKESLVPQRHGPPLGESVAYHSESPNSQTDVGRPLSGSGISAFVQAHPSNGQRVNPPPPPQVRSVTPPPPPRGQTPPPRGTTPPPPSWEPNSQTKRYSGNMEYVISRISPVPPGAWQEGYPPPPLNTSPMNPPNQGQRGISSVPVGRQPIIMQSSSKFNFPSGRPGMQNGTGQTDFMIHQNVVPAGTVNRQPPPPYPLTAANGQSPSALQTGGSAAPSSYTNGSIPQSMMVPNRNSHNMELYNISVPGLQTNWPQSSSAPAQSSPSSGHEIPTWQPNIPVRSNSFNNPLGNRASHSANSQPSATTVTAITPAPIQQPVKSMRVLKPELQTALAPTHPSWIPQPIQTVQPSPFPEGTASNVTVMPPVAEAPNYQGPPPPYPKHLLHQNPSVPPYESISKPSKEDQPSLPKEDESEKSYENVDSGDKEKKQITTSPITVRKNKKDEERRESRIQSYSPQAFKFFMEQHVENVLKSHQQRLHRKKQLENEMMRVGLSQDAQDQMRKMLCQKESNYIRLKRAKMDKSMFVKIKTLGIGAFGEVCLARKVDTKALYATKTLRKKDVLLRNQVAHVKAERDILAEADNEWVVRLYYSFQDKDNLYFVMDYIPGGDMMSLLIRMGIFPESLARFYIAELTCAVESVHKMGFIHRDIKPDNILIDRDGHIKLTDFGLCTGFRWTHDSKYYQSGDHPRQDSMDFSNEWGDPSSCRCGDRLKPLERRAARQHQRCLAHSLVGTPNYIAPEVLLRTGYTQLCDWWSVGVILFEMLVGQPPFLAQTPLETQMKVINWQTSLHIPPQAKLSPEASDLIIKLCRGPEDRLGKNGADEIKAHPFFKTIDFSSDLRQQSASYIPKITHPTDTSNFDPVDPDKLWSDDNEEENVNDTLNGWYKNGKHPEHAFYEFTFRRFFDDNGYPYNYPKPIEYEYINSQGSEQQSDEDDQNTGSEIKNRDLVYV
Experiment: NanoBRET target engagement assay in transfected HEK-293 cells, LATS1
Format: cell-based
Settings: Table 28, NanoBRET, HEK-293 cells; read-out: LATS1 (Cellular) IC50
pIC50: −log10 of the molar value.

input: Name the recorded pIC50 of the item CC1CC(c2ccc(-c3ccnc4[nH]ccc34)cc2)CC(C)N1 (stereo not drawn) in your answer.
output: < 4.30

input: Provide measured pIC50 value, entry: Fc1c[nH]c2nccc(-c3ccc(C4CCNCC4)c(Cl)c3)c12
output: < 4.30

input: Respond only with pIC50 recorded for Cc1cc(-c2ccnc3[nH]cc(F)c23)ncc1[C@@]1(O)[C@H](C)CN(C2CCS(=O)(=O)CC2)C[C@@H]1C
output: < 4.52

###

Please respond with reported pIC50 for every item in the list.
Target: AKT (Homo sapiens, UniProt P31749)
Sequence (P31749 whole entry): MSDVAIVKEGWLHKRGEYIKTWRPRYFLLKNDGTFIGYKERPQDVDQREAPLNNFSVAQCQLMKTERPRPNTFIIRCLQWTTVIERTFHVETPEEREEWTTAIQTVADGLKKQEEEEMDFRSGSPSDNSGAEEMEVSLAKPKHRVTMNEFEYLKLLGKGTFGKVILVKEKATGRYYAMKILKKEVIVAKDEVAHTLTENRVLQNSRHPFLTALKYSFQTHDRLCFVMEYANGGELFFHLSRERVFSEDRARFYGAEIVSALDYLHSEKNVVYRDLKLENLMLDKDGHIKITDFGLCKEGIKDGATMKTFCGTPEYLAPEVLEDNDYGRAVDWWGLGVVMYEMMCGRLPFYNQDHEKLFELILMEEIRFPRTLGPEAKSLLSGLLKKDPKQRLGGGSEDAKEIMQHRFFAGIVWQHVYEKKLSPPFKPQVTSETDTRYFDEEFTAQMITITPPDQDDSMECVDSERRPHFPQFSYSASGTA
Assay: RBC HotSpot kinase assay (33P-ATP, P81 filter-binding), AKT
Assay type: biochemical
Settings: Table 28, biochemical kinase assay; read-out: AKT IC50
Please note pIC50 is a logarithmic value: minus log10 of concentration in mol/L. Answer with that number alone.

input: In one line, give reported pIC50 of the entry O=C([C@@H]1CCCN1)N1CCC(c2ccc(-c3ccnc4[nH]cc(F)c34)cc2Cl)CC1 [Compound 166] .
output: 5.89

input: Supply measured pIC50 of OC1(c2ccc(-c3ccnc4[nH]cc(F)c34)cc2Cl)CNC1 [Compound 105] in your reply.
output: 6.08

input: // Input: OC1(c2ccc(-c3ccnc4[nH]ccc34)cc2)CCNCC1 [Compound 111] . Output its pIC50 only.
output: 5.96

input: Please give the documented pIC50 of Cc1cc(-c2ccnc3[nH]ccc23)ncc1CN [Compound 217]
output: 5.50

input: Return pIC50 for the following molecule: C[C@@H]1CN(C(=O)[C@H]2CCCN2)C[C@H](C)C1(O)c1c(F)cc(-c2ccnc3[nH]cc(F)c23)cc1F (stereo partly drawn) [Compound 85]
output: 6.18

input: Give the reported value of pIC50 for this record: C[C@@H]1CN(C(=O)CN)C[C@H](C)[C@@]1(O)c1ccc(-c2ccnc3[nH]cc(F)c23)cc1Cl [Compound 75]
output: 6.85

input: Determine its reported pIC50: c1cncc(-c2cc(-c3ccnc4[nH]ccc34)ccc2C2CCNCC2)c1 [Compound 154]
output: 5.88

input: State its pIC50: c1cc(-c2ccc(C3CCNCC3)cn2)c2cc[nH]c2n1 [Compound 175]
output: 5.15

input: Return value of pIC50 for input COC(=O)C1(c2ccc(-c3ccnc4[nH]cc(F)c34)cc2Cl)CCNCC1 [Compound 198] , no commentary.
output: 6.91

input: Given the molecule c1cc(-c2ccc(C3CC4CCCC(C3)N4)cc2)c2cc[nH]c2n1 (stereo not drawn) [Compound 146] , write its reported pIC50.
output: 5.61

input: Supply pIC50 value. Item: CC(=O)N1C[C@@H](C)[C@](O)(c2c(C)cc(-c3ccnc4[nH]cc(F)c34)cc2F)[C@@H](C)C1 [Compound 95]
output: 5.58

input: Using the record for c1ccc(-c2cc(-c3ccnc4[nH]ccc34)ccc2C2CCNCC2)cc1 [Compound 153] , state its measured pIC50.
output: 6.42

input: Output pIC50 of NCC(=O)N1CC2(C1)CC(O)(c1c(F)cc(-c3ccnc4[nH]cc(F)c34)cc1F)C2 [Compound 145]
output: 5.73

input: Please give the documented pIC50 of CC1CC(O)(c2ccc(-c3ccnc4[nH]cc(Br)c34)cc2Cl)CC(C)N1 (stereo not drawn) [Compound 120]
output: 6.99

input: Please supply the value of reported pIC50 for the item C[C@@H]1CN(C)C[C@H](C)[C@@]1(O)c1ccc(-c2ccnc3[nH]ccc23)cc1 [Compound 38]
output: 6.74

input: Look up and report measured pIC50 for this entry: NCc1ccc(-c2ccnc3[nH]ccc23)c(F)c1 [Compound 263]
output: 5.92

input: Item OC1(c2ccc(-c3ccnc4[nH]cc(F)c34)cc2)CC2(CNC2)C1 [Compound 319] : provide pIC50
output: 6.42

input: Note down pIC50 recorded for Cc1cc(-c2ccnc3[nH]cc(F)c23)cc(F)c1[C@@]1(O)[C@H](C)CNC[C@@H]1C [Compound 16]
output: 6.70
